// provenance: the supplement of paper PMC10307832

system: LXF-289; assay: relative viability (nuclei count vs DMSO), 5 days (fraction); higher = more cells survive; conditions: first compound 0.3162 µM
relative viability listing for selected compounds.
readout-name: relative viability

compound	readout-name	recorded-measurement
O=c1cc(N2CCOCC2)oc2c(-c3cccc4c3sc3ccccc34)cccc12 + Nc1nc2[nH]cc(CCc3ccc(C(=O)N[C@@H](CCC(=O)O)C(=O)O)cc3)c2c(=O)[nH]1 [Pemetrexed] (partner 0.2 µM)	relative viability	0.864
O=c1cc(N2CCOCC2)oc2c(-c3cccc4c3sc3ccccc34)cccc12 + C[C@@H](Oc1cc(-c2cnn(C3CCNCC3)c2)cnc1N)c1c(Cl)ccc(F)c1Cl [Crizotinib] (partner 1 µM)	relative viability	0.789
CCN(CC)CCCCNc1ncc2cc(-c3cc(OC)cc(OC)c3)c(NC(=O)NC(C)(C)C)nc2n1 + COc1cc2c(Oc3ccc(NC(=O)C4(C(=O)Nc5ccc(F)cc5)CC4)cc3F)ccnc2cc1OCCCN1CCOCC1 [Foretinib] (partner 0.25 µM)	relative viability	0.975
O=c1cc(N2CCOCC2)oc2c(-c3cccc4c3sc3ccccc34)cccc12 + Cc1nc(Nc2ncc(C(=O)Nc3c(C)cccc3Cl)s2)cc(N2CCN(CCO)CC2)n1 [Dasatinib] (partner 0.075 µM)	relative viability	0.213
O=c1cc(N2CCOCC2)oc2c(-c3cccc4c3sc3ccccc34)cccc12 + CC(=O)c1c(C)c2cnc(Nc3ccc(N4CCNCC4)cn3)nc2n(C2CCCC2)c1=O [Palbociclib] (partner 0.5 µM)	relative viability	0.583
CCN(CC)CCCCNc1ncc2cc(-c3cc(OC)cc(OC)c3)c(NC(=O)NC(C)(C)C)nc2n1 + Cc1nc(Nc2ncc(C(=O)Nc3c(C)cccc3Cl)s2)cc(N2CCN(CCO)CC2)n1 [Dasatinib] (partner 0.075 µM)	relative viability	0.167
O=c1cc(N2CCOCC2)oc2c(-c3cccc4c3sc3ccccc34)cccc12 + CS(=O)(=O)N1CCN(Cc2cc3nc(-c4cccc5[nH]ncc45)nc(N4CCOCC4)c3s2)CC1 [Pictilisib] (partner 1 µM)	relative viability	0.754
O=c1cc(N2CCOCC2)oc2c(-c3cccc4c3sc3ccccc34)cccc12 + C[C@]1(O)C[C@@H](c2nc(-c3ccc4ccc(-c5ccccc5)nc4c3)c3c(N)nccn32)C1 [Linsitinib] (partner 1 µM)	relative viability	0.978
CCN(CC)CCCCNc1ncc2cc(-c3cc(OC)cc(OC)c3)c(NC(=O)NC(C)(C)C)nc2n1 + Cc1cc(Nc2cc(N3CCN(C)CC3)nc(Sc3ccc(NC(=O)C4CC4)cc3)n2)n[nH]1 [Tozasertib] (partner 0.1 µM)	relative viability	0.186
O=c1cc(N2CCOCC2)oc2c(-c3cccc4c3sc3ccccc34)cccc12 + CC1(C)CCC(c2ccc(Cl)cc2)=C(CN2CCN(c3ccc(C(=O)NS(=O)(=O)c4ccc(N[C@H](CCN5CCOCC5)CSc5ccccc5)c(S(=O)(=O)C(F)(F)F)c4)cc3)CC2)C1 [Navitoclax] (partner 0.5 µM)	relative viability	0.865
O=c1cc(N2CCOCC2)oc2c(-c3cccc4c3sc3ccccc34)cccc12 + COc1cc2c(Oc3ccc(NC(=O)C4(C(=O)Nc5ccc(F)cc5)CC4)cc3F)ccnc2cc1OCCCN1CCOCC1 [Foretinib] (partner 0.25 µM)	relative viability	0.97
